- MEASUREMENT PROTOCOL: Study-1 Part-A single ascending dose pharmacokinetics (plasma and urine)
- Type: in vivo, human
- RECORDED CONDITIONS: human, urine and plasma, oral, 10 mg, Study-1 Part-A, single dose 10 mg fasted; geo mean (GeoCV%)

# CPD SMILES, CL renal [mL/min]
data = [
    ("[O-][n+]1cccc(-c2nc3c(Cl)cccc3cc2[C@@H](Nc2ncnc3cccnc23)C(F)(F)F)c1", 1.53),
]

----------
- MEASUREMENT PROTOCOL: Study-2 single-dose pharmacokinetics (plasma)
- Assay type: in vivo, human
- RECORDED CONDITIONS: human, plasma, oral; Study-2 single dose, 45 mg QD cohort; geo mean (GeoCV%); read-out: t1/2 (converted)

# CPD SMILES, half-life / h
rows = [
    ("[O-][n+]1cccc(-c2nc3c(Cl)cccc3cc2[C@@H](Nc2ncnc3cccnc23)C(F)(F)F)c1", 22.4),
]
